# Tested on: Caco-2 cell monolayers
# PROTOCOL_SUMMARY: Transport across Caco-2 cell monolayers, apical to basolateral
# Format: in vitro ADME, human
# CONDITION_NOTES: 106 μM, apical to basolateral, pH7.4, mean (SD), n = 3
Listing of recorded Papp at 106 μM by entry.

Look over these answered cases.
COc1ccc(/C=C/CCO)cc1OC [Compound D, (E)-4-(3,4-dimethoxyphenyl)but-3-en-1-ol]; 16.38 (0.61)** 10^-6cm/s
CCCCCCCCCCCCCCCC(=O)OCC/C=C/c1ccc(OC)c(OC)c1; 8.60 (0.55)** 10^-6cm/s
CCCCCCCC/C=C\CCCCCCCC(=O)OCC/C=C/c1ccc(OC)c(OC)c1; 10.08 (0.32) 10^-6cm/s

Noted Papp at 106 μM for "CCCCC/C=C\C/C=C\CCCCCCCC(=O)OCC/C=C/c1ccc(OC)c(OC)c1" , tested on Caco-2 cell monolayers: 14.33 (0.17) 10^-6cm/s
